Counter-ions that a name gives are not always drawn.
assay_endpoint: melting point (°C)

compound="O=c1[nH]c(Cc2cccc(Cl)c2)nc2c1cnn2-c1ccccc1C(F)(F)F (as salt: sodium) [Example 19]" assay_endpoint="melting point" unit=°C measured_result=152
compound="O=c1[nH]c(Cc2cccc(Cl)c2)nc2c1cnn2-c1ccccn1 (as salt: sodium) [Example 22]" assay_endpoint="melting point" unit=°C measured_result=230
compound="Cc1ccccc1-n1ncc2c(=O)[nH]c(Cc3cccc(Cl)c3)nc21 (as salt: sodium) [Example 16]" assay_endpoint="melting point" unit=°C measured_result=215
compound="O=c1[nH]c(Cc2cccc(Cl)c2)nc2c1cnn2-c1ccccc1Cl (as salt: sodium) [Example 21]" assay_endpoint="melting point" unit=°C measured_result=188
compound="COc1ccccc1-n1ncc2c(=O)[nH]c(Cc3cccc(Cl)c3)nc21 (as salt: sodium) [Example 23]" assay_endpoint="melting point" unit=°C measured_result=196
compound="CCc1ccccc1-n1ncc2c(=O)[nH]c(Cc3cccc(Cl)c3)nc21 (as salt: sodium) [Example 18]" assay_endpoint="melting point" unit=°C measured_result=208
compound="Cc1ccccc1-n1ncc2c(=O)[nH]c(Cc3ccccn3)nc21 (as salt: sodium) [Example 17]" assay_endpoint="melting point" unit=°C measured_result=162
compound="O=c1[nH]c(Cc2cccc(Cl)c2)nc2c1cnn2-c1ccccc1F (as salt: sodium) [Example 20]" assay_endpoint="melting point" unit=°C measured_result=197

###

target: UniProtKB O76083; test: PDE inhibition: recombinant PDE9A scintillation proximity assay; settings: inhibiting effect on PDE9A, recombinant enzyme expressed in Sf9 cells, [8-3H]cGMP substrate
Sequence (O76083 whole entry): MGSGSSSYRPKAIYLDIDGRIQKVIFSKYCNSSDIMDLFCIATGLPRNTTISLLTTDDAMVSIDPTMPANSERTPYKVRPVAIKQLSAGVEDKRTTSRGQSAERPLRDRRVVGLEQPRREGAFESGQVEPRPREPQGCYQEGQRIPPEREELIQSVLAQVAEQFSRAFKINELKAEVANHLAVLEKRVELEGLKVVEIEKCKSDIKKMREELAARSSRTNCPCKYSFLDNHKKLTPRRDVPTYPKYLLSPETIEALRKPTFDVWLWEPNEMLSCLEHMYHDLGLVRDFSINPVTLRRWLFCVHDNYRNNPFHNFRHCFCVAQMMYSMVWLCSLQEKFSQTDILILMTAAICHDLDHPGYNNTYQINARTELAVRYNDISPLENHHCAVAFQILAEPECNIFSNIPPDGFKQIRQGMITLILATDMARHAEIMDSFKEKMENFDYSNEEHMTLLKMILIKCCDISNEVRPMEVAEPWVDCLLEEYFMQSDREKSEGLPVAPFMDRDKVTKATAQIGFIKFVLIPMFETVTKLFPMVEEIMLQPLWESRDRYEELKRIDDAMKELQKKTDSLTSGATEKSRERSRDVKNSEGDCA
pIC50: −log10 of the molar value.
assay_endpoint: pIC50

molecule="Cc1cccc(-n2ncc3c(=O)[nH]c(Cc4cccc(Cl)c4)nc32)c1C [Example 2]" measured_on="UniProtKB O76083" measured_result=7.30
molecule="O=c1[nH]c(Cc2cccc(Cl)c2)nc2c1cnn2-c1c(Cl)cccc1Cl [Example 4]" measured_on="UniProtKB O76083" measured_result=7.19
